assay_protocol: folding stability dG unfold from chymotrypsin proteolysis; higher = more stable
Outcome: Satisfied for folding stability dG unfold of at least 1 kcal/mol; Not satisfied for anything lower.

SAGGSAGGMTIEVTFPDGTKLTITLENDGPDTLLATAEVEAPRAGGPSIPKEVAAKLAEELLASSAGGSAGG [r6_234_TrMRF] = Satisfied
SAMEKVYIKVKFEVEGDPNGKEKKTIELIVENPDPNIGKEKLLEIAKEAVEKFAKENGYKVKISEVEIGSAG [r14_190_TrMRF] = Satisfied
SAGMVITVPSDVPVEELLELARELARELGGGRVEVRTHPDNPEIVTATIDIPGTGKRILIINAPPGVLASAG [r5_912_TrMRF] = Satisfied
SAGGSAGGMVIPFILPGSEFEEEEAIERLLELIETARELNPDTPIIANPLILEVPPPPTETELGSAGGSAGG [r6_728_TrMRF] = Not satisfied
SAGGSASPELQKRIKDALQEENPDYPVTVDEVDPKNNTIMITFNSPWHQKRIEKALKEDGIKITIYSAGGSA [r15_196_TrROS] = Not satisfied
SAEVRVEIVEVDEERGVIRIEITVPEDLPEEEILEELARRLEELARERGYEVRIERREDGTYRIEIRFPSAG [r14_865_TrROS_Hall] = Satisfied
SAGGSAGGSAGSMAVDLKITISEDPSKPTYTGTVHLPDGTVVTVTSTGSPEELRARLEALLSAGGSAGGSAG [r3_143_JUSTAS] = Satisfied
SAGMPVITTTEELPGGLTVTTTTYPPGDTTTTVTSPEGNVTTTTTTTTPTPTPTTTTTTTTTTTPVPPASAG [r5_944_JUSTAS] = Satisfied
SAGGSAGGSAGDEWITIWFLFPSPEQAKDIADPLASNGLNIDVETHRMPDGNYWVNITIPSAGGSAGGSAGG [r11_677_TrROS] = Satisfied
SAGGSAGGSAGKKITIPNLDVMRNPDDGMAFIQFGGQMIMIPPNVKIEQDPNGWMEIELPSAGGSAGGSAGG [r17_34_TrROS] = Not satisfied

Exercise: Has SAGKPKKKIKIKLYNVDTGEEIEIEVTVEELKKLLEKLGFEVVKIEYDEETGEVTIYVKVDGYYLEIEESAG [r5_521_TrROS_Hall] a recorded folding stability dG unfold greater than or equal to 1 kcal/mol?
Solution: Satisfied

Exercise: Has SAGGSAGGSAGGSDYIMFRIPAPPGEKIEIPIPNGWEVEINPQPHNGRWYFMIKIPEDASAGGSAGGSAGGS [r4_360_TrROS] a recorded folding stability dG unfold greater than or equal to 1 kcal/mol?
Solution: Satisfied

Exercise: Has SGMDTVTPTTSTTQYFVEPNPEPVLSISTTTDTTTDPANPGVVTVTTTTTITDPRTGTTTTTPTTTTVPASA [r9_342_JUSTAS] a recorded folding stability dG unfold greater than or equal to 1 kcal/mol?
Solution: Not satisfied

Exercise: Has SAGGMVTVTDPNGVKHEYKLKVKITFEKPDGKPVTVEIEFDNVTVEDIVKIAKEIESKGYKLVSIEISSAGG [r13_227_TrMRF] a recorded folding stability dG unfold greater than or equal to 1 kcal/mol?
Solution: Satisfied

---

assay_protocol: folding stability dG unfold from chymotrypsin proteolysis; higher = more stable
Outcome: Yes for folding stability dG unfold of at least 2 kcal/mol; No for anything lower.

Field: example entries. Status: answers known.
SAGGSAKKIKIFSLEELRERFPDLSEEELKKRAEELAKELAERLKEEGKPVEVEIVEVKLPEEEKKSAGGSA [r15_287_TrROS_Hall] = Yes
SAGGSAGGPLENDIPIPLTVPLPGPGTAELFLLPSTGEVLALVEGKPYLVSLEDLKDGVFRLGLSAGGSAGG [r6_939_TrMRF] = No
SAGGSAGGSAGMKIRIELPGMSPEQIEELAKLIPNVRVSITYDKETNRVYVEIEVSEEDLSAGGSAGGSAGG [r11_862_TrROS_Hall] = Yes
SAGGSAGGSKEKKYLVIELKLKVPPGMSPEELAKLLESLPGLKVVEIVEVDEESGTVKIVVELSAGGSAGGS [r12_712_TrROS_Hall] = Yes
SAGGSAGGSMKLVTVKMKRPNGPVELTPVLPVDPSETLEEVKERVLELYPGAEITEITVTPDESAGGSAGGS [r12_738_JUSTAS] = No
SAGDVKVITIKNPDGWQASIALNEDGTVYLMFNSPDQFLDLIEDLGFPITSVEMHPNGMMIFTIELPPSAGG [r19_257_TrROS] = Yes

Exercise: Has SAGGTVTTEEVDDATYITVTKPSGETLTITAPALPDDTYLVTVYDPKTGKSTTKTVSSLDEAIKLLGSAGGS [r8_230_JUSTAS] a recorded folding stability dG unfold greater than or equal to 2 kcal/mol?
Solution: No

---

assay_protocol: folding stability dG unfold (combined trypsin and chymotrypsin); higher = more stable
Can you tell me folding stability dG unfold for the items I'm about to list?
One number for each entry, in kcal/mol.

SAGGSAKKKVTITVEKKGDKYLVTIEVDGKTVVIEVPKDTTIEEIAAALPPGAKIKEIKVVKAEELSAGGSA [r15_1058_TrROS_Hall] = 1.16

// each listed sequence needs a value for folding stability dG unfold
1. SAKTVKVRIELTLTVVKVTLDPETGELKVEEVKTLTLEIELEMSEEDLEKARRALEEELKRLLEELGIPSAG [r14_308_TrROS_Hall]
2. SAGGSSITVPYPEGYEITVEVFPNYATITTKTPSSTLTKTVSFSTPVTVKTPSDKPVTINVPSPEVSAGGSA [r2_57_JUSTAS]
3. SNPISAVVPSPGGRYVLVVEYKDGSVEVYEFEGLSTAEEAKERALALLKESTEGEPREITRVVVLPAPPGSA [r9_1135_TrMRF]
4. SAKITIFFPFDAVKEILDLLKENGVEVNIERHPGNPWYSATITRPDPNGKELPIEIMMFPDHGYVQITLSAG [r14_169_TrROS]
5. SAGGSMTTPPTGEVQVFIDRKTDKWTIRIVDPNAPPTTEEVESEEEAEKVIAELEAKGYKVDTVEPLPSAGG [r13_727_JUSTAS]
6. SMEEVKEALRKAGIDVPVTKIETEKLPDGSYKVTLTVGDKKVLTVYVPPEPPEPPVFYRTPPNGSREPVLSA [r9_442_JUSTAS]

Solution:
1: 3.9; 2: 0.436; 3: 4.33; 4: 2.57; 5: 0.913; 6: 0.504

---

Can you tell me folding stability dG unfold for the items I'm about to list?
assay_protocol: folding stability dG unfold from trypsin proteolysis; higher = more stable
Give bare numbers, in kcal/mol.

Record excerpt, results attached:
SAGGSAGGSAKVTYTENSVTIHAKVPEKPLKIEIPNTGKVVTIDLDKEVTVTFPVPKPPDESAGGSAGGSAG [r3_185_TrMRF] = -0.786
SAGGKELILKLKIEVNGKTLTIEVKVSPEELKKLLDELKKLGIKEIEIESIEFDKETNEIKVKVKVKSAGGS [r8_219_TrROS_Hall] = 2.52
SAGGSAGDPSLPQPQYIAFLLVTKPGGVEEPLEVEVKTEEEAEKIAQEVRDAGYEVELELRPAALLSAGGSA [r15_906_JUSTAS] = 1.72

// each listed sequence needs a value for folding stability dG unfold
1. SAGGSSFTGTVTPVKVDPVNPDLVTVATTLTWPDGTTVPLTRTIPRSVYDSLPENISISVTLSPPSSAGGSA [r2_128_JUSTAS]
2. SAGMITLPTRGPEELIERLRAIAEELGLSEEDIEQFLRDLAEHATIEQDGDLLLITFQPPVPALPGEPESAG [r5_717_TrMRF]
3. MVITPEEVAEMLGVSPEELAALPLEELAQRILEVLPAGVATSVTVERDPARGTTTITVTLSDGKNIDVTLES [r1_340_JUSTAS]
4. SAGGMSPELKKNKNVEKVIYNKKTGKVFVYNKKTKKLYIFTKNGKKIEIKMSKDEVEKLLKKGFKPISAGGS [r16_745_TrROS_Hall]
5. SAGKTIVVPTEEEAEKLAKELAEETGKEVEIVKVEKEKKKDGYEVYTIKVKLKDNNKTIEIKIVRPKEKSAG [r5_173_TrROS_Hall]
6. SAGGSVEVTKTESKGPGGTVTVEALKTVTKFDEKGNPVKEEEVRITRTETYDPNTGKVTTTTTVEGSAGGSA [r2_220_JUSTAS]
7. SAGGSGMIKTETTVTITFPGGETVSFPATVTYDPETGKTEVEVNLPEAALAELKERAPDAEVNVLLSAGGSA [r2_409_JUSTAS]

Solution:
[-0.0475, 1.23, 4.41, 2.14, 1.52, -0.0891, 1.76]

Reference source: the supplement of paper PMC12764529
